target_under_test: Proteasome subunit beta (Trypanosoma cruzi) (UniProt O96673)
Sequence (O96673 as listed by the source): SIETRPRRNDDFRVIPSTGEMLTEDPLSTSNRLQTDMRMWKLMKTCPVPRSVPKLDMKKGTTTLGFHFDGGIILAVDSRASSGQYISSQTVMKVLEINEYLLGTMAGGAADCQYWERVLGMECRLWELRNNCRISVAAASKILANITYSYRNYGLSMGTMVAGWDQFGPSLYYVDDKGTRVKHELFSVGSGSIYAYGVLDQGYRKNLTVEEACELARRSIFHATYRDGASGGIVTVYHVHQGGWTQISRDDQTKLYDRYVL
method_notes: Trypanosoma cruzi proteasome chymotrypsin-like activity (TcProtChymo) assay. Note: in the data most compounds retested in dose-response had high values.
Type: functional
Parameters: scale not given: direction of the effect not stated beside the values
condition_details: 9.37 µM
Response key: 1 means Percent Effect >= 10%; 0 means Percent Effect < 10%.

* CCOC(=O)[C@]12CCCN(Cc3ccco3)C[C@H]1CN(CCN(C)C)C2 | 1
* Cc1cncc(C2CCCN(C(=O)c3scnc3C)C2)n1 (stereo not drawn) | 0
* CCOc1ccc(CC(=O)N2CCN(c3nccn3C)CC2)cc1 | 1
* CN(C)C1CCN(C(=O)c2ccc(Cn3ccccc3=O)o2)CC1 | 0
* CN(Cc1nc(N)c2ccccc2n1)CC1CCCN1c1cccnn1 (stereo not drawn) | 1
* c1coc(CN2C[C@H](OCC3CCOCC3)[C@H]3COC[C@H]32)c1 | 1
* O=C(NCCC1=CCCCC1)NCc1nnc2n1CCC2 | 0

====

Reported values of Percent Effect for individual entries
target_under_test: Protein translocase subunit SecA (Escherichia coli (strain K12)) (UniProt P10408)
Sequence (P10408 whole entry): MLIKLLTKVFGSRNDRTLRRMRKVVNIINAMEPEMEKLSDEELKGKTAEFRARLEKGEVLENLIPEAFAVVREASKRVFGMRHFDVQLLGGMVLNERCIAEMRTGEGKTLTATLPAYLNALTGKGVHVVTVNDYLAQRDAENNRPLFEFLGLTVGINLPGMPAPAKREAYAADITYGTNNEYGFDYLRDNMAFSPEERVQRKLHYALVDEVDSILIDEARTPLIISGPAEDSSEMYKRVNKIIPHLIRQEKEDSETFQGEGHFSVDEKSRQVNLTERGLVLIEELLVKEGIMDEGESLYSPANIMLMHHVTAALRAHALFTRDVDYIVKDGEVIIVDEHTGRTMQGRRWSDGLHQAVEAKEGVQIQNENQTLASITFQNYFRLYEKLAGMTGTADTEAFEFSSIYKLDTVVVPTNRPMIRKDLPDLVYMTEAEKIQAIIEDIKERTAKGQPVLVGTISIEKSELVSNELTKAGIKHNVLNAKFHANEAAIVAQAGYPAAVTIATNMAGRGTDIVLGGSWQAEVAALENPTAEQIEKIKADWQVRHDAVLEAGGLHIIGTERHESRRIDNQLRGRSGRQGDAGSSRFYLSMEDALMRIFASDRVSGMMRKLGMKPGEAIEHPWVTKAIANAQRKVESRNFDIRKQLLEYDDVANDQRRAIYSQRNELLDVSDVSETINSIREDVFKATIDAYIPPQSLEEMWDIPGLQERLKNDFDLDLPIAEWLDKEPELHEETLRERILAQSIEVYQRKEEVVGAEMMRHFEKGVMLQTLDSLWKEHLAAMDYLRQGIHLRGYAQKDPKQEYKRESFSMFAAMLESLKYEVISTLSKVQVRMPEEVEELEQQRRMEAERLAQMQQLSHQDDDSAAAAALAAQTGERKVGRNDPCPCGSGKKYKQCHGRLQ
method_notes: Assay to Identify E. coli SecA ATPase Inhibitors
Format: functional
Design: scale not given: direction of the effect not stated beside the values
condition_details: 30 µM
Results with a measured potency or affinity are listed apart.
measurement_label: Percent Effect (%)

* CCCC(C)CN1CCC(n2cc(C3CCCC3)nn2)CC1 (centres undefined) | -5.89
* O=C(c1cscn1)N1CCC[C@]2(C[C@H](OCC3CC3)CO2)C1 | -1.77
* COCCN1CCC(CNC(=O)C2(c3cccc(C)c3)CC2)CC1 | -2.68
* NC(=O)N1CCC2(CCN(Cc3cccc(F)c3)CC2)CC1 | -2.86

====

target_under_test: Proteasome subunit beta (Trypanosoma cruzi) (UniProt O96673)
method_notes: Trypanosoma cruzi proteasome chymotrypsin-like activity (TcProtChymo) assay. Note: in the data most compounds retested in dose-response had high values.
Format: functional
Design: scale not given: direction of the effect not stated beside the values
condition_details: 9.37 µM
measurement_label: Percent Effect (%)

- Cn1ccc(C(=O)NC2CCC23CCN(C(=O)N2CCCC2)CC3)c1 (configuration not stated): 19.2
- Cc1cc(C)n(CC2CN(CCOc3cccc(C#N)c3)CCO2)n1 (configuration not stated): 1.44
- Cn1nc2c(cc1=O)CN(CCc1nc3ccccc3c(=O)[nH]1)CC2: 17.9
- CC(=O)c1ccc(N2CCC(CO)(CCOc3ccccc3)CC2)nc1: 9.48
- Cc1noc(C)c1-c1cncc(C2CCCN2Cc2cncnc2)n1 (configuration not stated): 5.55
- O=C(CC1CC1)N1CCC2(CC1)CN(c1ncccn1)CCO2: 5.9
- CCOc1cc(C)nc(N2CCN(C(=O)CC)CC2)n1: -14.4
- CCn1nc(C)cc1C(=O)Nc1cc(F)ccc1OCC1CCCO1 (configuration not stated): 9.78
- CCOCC1CN(Cc2ccoc2)Cc2nn(CC3CC3)cc21 (configuration not stated): 3.3
- CCn1nc(C)c2nc(C(C)C)nc(N3CCCCC3)c21: 1.5
- CCCS(=O)(=O)N1C[C@H]2OC(=O)N(CCc3cccc(Cl)c3)[C@H]2C1: 5.93
- CC(C)C(Sc1nnnn1C1CC1)C(=O)NCc1cccnc1 (configuration not stated): 13.3
- Cc1nc(CN2CCc3cncnc3C2)oc1C: 3.55
- O=C(Cn1c(=O)n(Cc2ccco2)c2ncccc21)Nc1ccccn1: 9.2
- CCc1ccc(-n2c(=O)[nH]c3nc(N4CCSCC4)ncc3c2=O)cc1: 15.8
- Cn1cc(CN2CCCN(C(=O)c3ccc4c(c3)COC4)CC2)cn1: 12.6
- Cc1nc([C@@H]2C[C@@H]3CCN(C(=O)c4occc4C)C[C@H]3O2)no1: 4.1
- Cc1noc(Cl)c1CCC(=O)N1CCN(c2ncccn2)CC1: 7.02
- O=S(=O)(NCC1CCN(c2cnccn2)CC1)c1c(F)cccc1F: 5.74
- Clc1ccccc1-c1nc(CNCCn2cccn2)cs1: 10.9
- Cc1cc(O)c(OCC(=O)/N=c2\[nH]cc(C)s2)cn1: 5.85
- COCC(=O)N(C)Cc1cccc(Cl)c1: 2.78

====

target_under_test: AMP-activated protein kinase, AMPK (Homo sapiens) (UniProt P54646+O43741+P54619+Q9UGJ0+Q9Y478+Q13131+Q9UGI9)
method_notes: AMP-dependent Kinase enzyme assay. An in vitro enzyme assay that detects ADP turnover that is directly proportional to AMPK activity. This uses naive AMPK that is activated during the assay with MK-8722
Assay type: functional
Parameters: scale not given: direction of the effect not stated beside the values
condition_details: 30 µM
Reported values of Percent Effect for individual entries
measurement_label: Percent Effect (%)

• Cc1noc(C)c1-c1cncc(C2CCCN2Cc2cncnc2)n1 (configuration not stated) = 6.8
• NC(=O)CN1CC2(CCC1=O)CCN(Cc1cc(F)ccc1Cl)CC2 = -3.98
• Cc1nc(N2CC[C@@H](NC(=O)c3cnccn3)[C@H](O)C2)c2ccsc2n1 = -4.4
• CCOc1cc(C(=O)N2CCCC(c3noc(C)n3)C2)ccn1 (configuration not stated) = -4.05
• CCN(C(c1cccnc1)c1ccc2c(c1)CCO2)S(C)(=O)=O (configuration not stated) = -1.35
• Cc1nc(C)n(CC2CCCN(CC(=O)Nc3c(C)n[nH]c3C)C2)n1 (configuration not stated) = -0.0642
• Cc1ccc(F)c(OC2(C(=O)O)CCN(C(=O)N3CCCC3)CC2)c1 = 5.17

====

Reported values of Percent Effect for individual entries
target_under_test: Proteasome subunit beta (Trypanosoma cruzi)
method_notes: Trypanosoma cruzi proteasome chymotrypsin-like activity (TcProtChymo) assay. Note: in the data most compounds retested in dose-response had high values.
Assay type: functional
Set-up: scale not given: direction of the effect not stated beside the values
condition_details: 9.37 µM
measurement_label: Percent Effect (%)

* CC(=O)N1CC(Cc2nccc3ccn(C)c23)C1 | 22.6
* O=C(CCc1nccs1)N1CCC(N2CCNC2=O)CC1 | 12.6
* CN1CCOC(CNCc2coc(-c3ccccc3)n2)C1 (stereo unspecified) | 8.6
* COc1cc(CNC2CCCc3c2cnn3C)cc(OC)c1 (stereo unspecified) | -1.44
* c1ccc(CN2CC[C@@H]3O[C@@H](COCC4CCOCC4)CC[C@@H]32)nc1 | 12.4
* Cn1nnc2c1C(COCc1ccccn1)CN(C(=O)c1cccs1)C2 (stereo unspecified) | 13.6

====

target_under_test: Tyrosyl-tRNA synthetase, putative (Trypanosoma cruzi (strain CL Brener))
Sequence (whole entry): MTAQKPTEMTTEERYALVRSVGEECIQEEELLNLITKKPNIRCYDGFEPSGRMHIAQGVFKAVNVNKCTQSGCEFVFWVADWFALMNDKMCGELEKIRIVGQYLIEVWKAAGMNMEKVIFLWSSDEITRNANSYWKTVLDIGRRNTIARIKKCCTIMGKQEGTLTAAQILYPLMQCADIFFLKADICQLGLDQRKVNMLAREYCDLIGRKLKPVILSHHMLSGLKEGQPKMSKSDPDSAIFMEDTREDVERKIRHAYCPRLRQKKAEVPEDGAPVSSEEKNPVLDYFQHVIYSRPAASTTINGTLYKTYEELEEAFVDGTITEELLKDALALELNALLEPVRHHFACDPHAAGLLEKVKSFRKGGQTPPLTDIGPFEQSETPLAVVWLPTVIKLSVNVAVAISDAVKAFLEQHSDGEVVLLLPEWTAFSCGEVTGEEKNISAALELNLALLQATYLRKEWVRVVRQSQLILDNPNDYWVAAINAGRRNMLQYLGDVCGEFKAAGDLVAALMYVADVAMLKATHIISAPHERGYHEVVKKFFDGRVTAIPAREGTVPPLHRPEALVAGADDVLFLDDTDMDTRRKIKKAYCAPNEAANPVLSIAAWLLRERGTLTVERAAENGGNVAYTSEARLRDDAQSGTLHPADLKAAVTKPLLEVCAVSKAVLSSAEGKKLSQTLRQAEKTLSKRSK
method_notes: Trypanosoma cruzi tyrosyl tRNA synthetase (TcYRS) SOP
Assay type: functional
Parameters: scale not given: direction of the effect not stated beside the values
condition_details: 30 µM
Reported values of Percent Effect for individual entries
measurement_label: Percent Effect

- O=C1[C@@H]2CCN(Cc3ccncc3)C[C@@H]2OCCN1c1ccccc1: 14.1%
- C=C(C)COCCNC(=O)C1CCCN1C(C)=O (stereo unspecified): 21.9%
- CCc1c(C(=O)NCC(=O)OCC2CC2)cnn1-c1ccc(C)cc1: 24.1%
- Cc1cnc(CN(C)CC2CCCN2c2cccnn2)cn1 (stereo unspecified): 25.9%
- Cc1ccccc1C1(C(=O)NCCN2CCCC2)CCOCC1: 18.5%
- CCc1c(C)sc(NC(=O)CN2CCN(CC)CC2)c1C(=O)OC: -2.56%
- CCOCc1cccc(S(=O)(=O)N2CCSCC2)c1: -2.56%
- CC(C)Nc1ncc(CN2C[C@@H](CN3CCC(O)CC3)[C@@H](CO)C2)cn1: 11.1%
- O=C(NCCOCC(F)(F)F)c1ccc(-c2ccco2)[nH]c1=O: 11.1%
- COc1ccc(Cl)cc1NCC(=O)NCCc1ccccn1: 1.24%
- Cc1noc(C)c1CNC(=O)c1ccc(NC2CC2)nc1: 25.9%
- O=C1CC2(CCN(c3nncs3)C2)CN1c1ccccc1 (stereo unspecified): 11%
- Cc1nc(C)n(CC2CCCN(Cc3cccc(C#N)c3)C2)n1 (stereo unspecified): 13.6%
- CCOc1ccc(C#N)cc1NCC(=O)Nc1cc(C)no1: -130%
- CCCc1noc(CCC(=O)N2CCCC2c2noc(C3CC3)n2)n1 (stereo unspecified): 1.27%
- CC(C)c1noc(C(C)N2CCN(CCO)CC2)n1 (stereo unspecified): 6.17%
- COCCN1CCC(NCc2ccc(C#N)cc2)C1 (stereo unspecified): 21.9%
- CCC1(CC)Cc2ccccc2-c2nc(NCCO)[nH]c(=O)c21: 10.4%
- CSCC(CCO)NC(=O)Nc1cc(C)ccc1C (stereo unspecified): 5%
- CC(C)c1nnc2n1CCN(C(=O)CN1Cc3ccccc3C1=O)C2: 17.1%
- Cc1nc2c(c(N3CC=CC3)n1)CCN(Cc1ccoc1)CC2: 8.64%
- COCCN(Cc1ccc(F)cc1Cl)C(=O)c1ccncc1: 0%
- Cc1occc1C(=O)Nc1ccnc(OC2CCOC2)c1 (stereo unspecified): 2.56%
- COc1ccc(NC(=O)CCC2CCCN(Cc3ncon3)C2)cc1Cl (stereo unspecified): 18.5%
- Cc1nn(C)c(C)c1C1COCCN1C(=O)c1ccccc1 (stereo unspecified): 12.2%
- O=C1[C@H]2CC[C@H](CN(Cc3ccccc3OC(F)F)C2)N1CC1CC1: 17.1%
- CCC1(CO)CCCN(c2ncccc2C#N)C1 (stereo unspecified): 0%
- CCNc1cc2c(nn1)CCN(C(=O)c1ccnc(N(C)C)c1)C2: 4.88%
- CCC1=N[C@@]2(CC[C@@H]3CN(C(=O)NCC(C)C)C[C@@H]32)C(=O)N1CC(C)C: 10%
- COCc1nc(C(=O)N2CCCCC2Cn2cccn2)cs1 (stereo unspecified): 3.7%
- CCC(C)(C)NC(=O)CN(C)C(c1cccc(F)c1)c1ccccn1 (stereo unspecified): 7.32%
- CCNC(=O)[C@@H]1C[C@H](NC(=O)c2cncnc2C)CN1CCCSC: 13.6%
- O=C(NCCCN1CCCC1=O)Nc1ccc(Br)cc1Cl: 2.56%
- COCCCC1(CO)CCCN(CCc2ccccc2)C1 (stereo unspecified): 2.5%
- CCc1nc(CN(C)CC2CCN(CCO)CC2)no1: 9.76%
- CC(C)N1CC(C(=O)NCCc2csc(-c3ccncc3)n2)CC1=O (stereo unspecified): 16.1%
- Cc1ccc([C@]2(O)CC[C@H]3CN(Cc4cc(C)c(O)c(C)c4)C[C@H]32)nc1: 6.49%
- Cc1ccc(C(=O)N2CCn3cc(CN4CCCCC4)nc3C2)o1: -6.41%
- Cn1cnnc1C1CCCN(C(=O)NCCc2ccccc2F)C1 (stereo unspecified): 14.1%
- CN(C(=O)Cc1ccc2c(c1)OCCO2)C1CCCC1: 10.4%
- CN(CCO)Cc1nnc(C2CCN(C3CCCCC3)CC2)n1C: 11.1%
